Kindly supply the reported IC50 values for the records listed here.
System: HCT-116/VM46
assayRemarks: Growth inhibition of vinblastine-resistant human HCT116/VM46 cells overexpressing P-gp after 72 hrs by phosphatase assay
Assay type: functional, cell-based
measurementParameters: HCT-116/VM46, 72 h
The response must be a number in nM with no trailing unit.

Need IC50, item CC[C@]1(NC(=O)N2Cc3ccc(OC)cc3C2)C[C@H]2CN(CCc3c([nH]c4ccccc34)[C@@](C(=O)OC)(c3cc4c(cc3OC)N(C)[C@H]3[C@@](O)(C(=O)OC)[C@H](OC(C)=O)[C@]5(CC)C=CCN6CC[C@]43[C@@H]65)C2)C1
8.7

Lookup CC[C@]1(NC(=O)N2CC=CCC2)C[C@H]2CN(CCc3c([nH]c4ccccc34)[C@@](C(=O)OC)(c3cc4c(cc3OC)N(C)[C@H]3[C@@](O)(C(=O)OC)[C@H](OC(C)=O)[C@]5(CC)C=CCN6CC[C@]43[C@@H]65)C2)C1
8.4

Lookup CC[C@]1(NC(=O)N2CCC(c3ccccc3)CC2)C[C@H]2CN(CCc3c([nH]c4ccccc34)[C@@](C(=O)OC)(c3cc4c(cc3OC)N(C)[C@H]3[C@@](O)(C(=O)OC)[C@H](OC(C)=O)[C@]5(CC)C=CCN6CC[C@]43[C@@H]65)C2)C1
55

Lookup CC[C@]1(NC(=O)N2CCc3ccccc3C2)C[C@H]2CN(CCc3c([nH]c4ccccc34)[C@@](C(=O)OC)(c3cc4c(cc3OC)N(C)[C@H]3[C@@](O)(C(=O)OC)[C@H](OC(C)=O)[C@]5(CC)C=CCN6CC[C@]43[C@@H]65)C2)C1
8.7

Lookup CC[C@]1(NC(=O)N2CCCC2)C[C@H]2CN(CCc3c([nH]c4ccccc34)[C@@](C(=O)OC)(c3cc4c(cc3OC)N(C)[C@H]3[C@@](O)(C(=O)OC)[C@H](OC(C)=O)[C@]5(CC)C=CCN6CC[C@]43[C@@H]65)C2)C1
50

Lookup CC[C@]1(NC(=O)N2Cc3ccccc3C2)C[C@H]2CN(CCc3c([nH]c4ccccc34)[C@@](C(=O)OC)(c3cc4c(cc3OC)N(C)[C@H]3[C@@](O)(C(=O)OC)[C@H](OC(C)=O)[C@]5(CC)C=CCN6CC[C@]43[C@@H]65)C2)C1
7.5

Lookup CC[C@]1(NC(=O)N2CCSCC2)C[C@H]2CN(CCc3c([nH]c4ccccc34)[C@@](C(=O)OC)(c3cc4c(cc3OC)N(C)[C@H]3[C@@](O)(C(=O)OC)[C@H](OC(C)=O)[C@]5(CC)C=CCN6CC[C@]43[C@@H]65)C2)C1
50

Lookup CC[C@]1(NC(=O)N2CCN(C)CC2)C[C@H]2CN(CCc3c([nH]c4ccccc34)[C@@](C(=O)OC)(c3cc4c(cc3OC)N(C)[C@H]3[C@@](O)(C(=O)OC)[C@H](OC(C)=O)[C@]5(CC)C=CCN6CC[C@]43[C@@H]65)C2)C1
710
